assay.notes: Human liver microsome (HLM) metabolic stability assay
Type: in vitro ADME
condition.notes: human liver microsomes
// values below are reported Metabolic stability (Qh %), % hepatic blood flow

>  <compound>
COC[C@H]1N(c2nccc(-c3cccc(C)c3OCc3cc(C)c4c(c3)CCN(C3CCOCC3)C4)n2)CC2C[C@@]21C(=O)O (stereo partly shown) [Compound 237]

>  <measured.result>
<24%

$$$$
>  <compound>
COc1cc(COc2c(C)cccc2-c2csc(N3CC[C@H](C(=O)O)[C@H](OC)C3)n2)cc2c1CN(C1CCOCC1)CC2 [Compound 177]

>  <measured.result>
<24%

$$$$
>  <compound>
Cc1cccc(-c2cccc(N3CC[C@@]4(C(=O)O)C[C@H]4C3)n2)c1OCc1ccc2c(c1)CCN(C1CCOCC1)C2 [Compound 13]

>  <measured.result>
42%

$$$$
>  <compound>
COc1ccc(OCc2ccc3c(c2C)CCN(C2CCOCC2)C3)c(-c2csc(N3CC[C@@]4(C(=O)O)C[C@H]4C3)n2)c1 [Compound 200]

>  <measured.result>
<24%

$$$$

Consider the compound COC[C@H]1N(c2cccc(-c3cccc(C)c3OCc3cc(F)c4c(c3)CCN(C3CCOCC3)C4)n2)C[C@@H]2C[C@@]21C(=O)O [Compound 216] and give its measured Metabolic stability (Qh %), % hepatic blood flow.
39%

Could you share which Metabolic stability (Qh %), % hepatic blood flow value was measured for COC[C@H]1N(c2cccc(-c3cccc(C)c3OCc3ccc4c(c3F)CCN(C3CCOC3)CC4)n2)C[C@@H]2C[C@@]21C(=O)O (stereo partly shown) [Compound 268] ?
40%

What value of measured Metabolic stability (Qh %), % hepatic blood flow is listed for CCO[C@H]1CN(c2cccc(-c3cc(C)ccc3OCc3cc4c(c(OC)c3)CN(C3CCOCC3)CC4)n2)CC[C@H]1C(=O)O [Compound 235] ?
50%

Which Metabolic stability (Qh %), % hepatic blood flow is listed for CO[C@H]1CN(c2nc(-c3cc(C)ccc3OCc3ccc4c(c3C)CCN(C3CCOCC3)CC4)cs2)CC[C@H]1C(=O)O [Compound 182] ?
<24%

Requested read-out: Metabolic stability (Qh %), % hepatic blood flow. Entry: COCc1cc(COc2c(C)cccc2-c2cccc(N3C[C@@H]4C[C@]4(C(=O)O)[C@H]3COC)n2)cc2c1CN(C1COC1)CC2 [Compound 281]
25%

Any idea what Metabolic stability (Qh %), % hepatic blood flow was measured for CO[C@@H]1CN(c2cccc(-c3cccc(C)c3OCc3ccc4c(c3C)CCN(C3COC3)CC4)n2)CC[C@@H]1C(=O)O [Compound 196] ?
24%

###

assay.notes: physchem
condition.notes: pH 6.8, aqueous buffer, kinetic from dmso stock, Solubility (pH 6.8)
readout.label: solubility at 24 h

The cases that follow already have their solubility at 24 h on record.
>  <smi>
CCO[C@@H]1CN(c2nccc(-c3cccc(C)c3OCc3ccc4c(c3C)CCN(C3CCOCC3)CC4)n2)CC[C@@H]1C(=O)O

>  <solubility at 24 h>
90.6 µg/mL

$$$$
>  <smi>
COc1ccc(OCc2ccc3c(c2C)CCN(C2CCOCC2)C3)c(-c2csc(N3CC[C@@]4(C(=O)O)C[C@H]4C3)n2)c1

>  <solubility at 24 h>
10.5 µg/mL

$$$$
>  <smi>
Cc1cccc(-c2csc(N3C[C@@H]4C[C@]4(C(=O)O)C3)n2)c1OCc1cc(C#N)c2c(c1)CCN(C1COC1)C2

>  <solubility at 24 h>
81 µg/mL

$$$$
>  <smi>
CO[C@H]1CN(c2nc(-c3cccc(Cl)c3OCc3ccc4c(c3)[C@H](C)CN(C3COC3)CC4)cs2)CC[C@H]1C(=O)O

>  <solubility at 24 h>
60.2 µg/mL

$$$$
>  <smi>
Cc1ccc(OCc2ccc3c(c2C)CCN(C2CCOCC2)C3)c(-c2csc(N3C[C@@H]4C[C@]4(C(=O)O)C3)n2)c1

>  <solubility at 24 h>
9.9 µg/mL

$$$$
>  <smi>
CO[C@H]1CN(c2nc(-c3cccc(C)c3OCc3ccc4c(c3C)CCN(C3CCOCC3)CC4)cs2)CC[C@H]1C(=O)O

>  <solubility at 24 h>
71.8 µg/mL

$$$$

Request the reported solubility at 24 h associated with `Cc1cccc(-c2cccc(N3CC[C@H](C(=O)O)[C@@H]4OCCC[C@H]43)n2)c1OCc1ccc2c(c1C)CCN(C1COC1)CC2`
30 µg/mL

// query solubility at 24 h value for entry `CO[C@H]1CN(c2nc(-c3cccc(C)c3OCc3cc(C)c4c(c3)CCN(C3COC3)CC4)cs2)CC[C@H]1C(=O)O`
77.9 µg/mL

GET /values?readout=solubility at 24 h&item= `Cc1cc(C)c(OCc2ccc3c(c2C)CCN(C2CCOCC2)C3)c(-c2csc(N3C[C@@H]4C[C@]4(C(=O)O)C3)n2)c1`
53 µg/mL

Bench note: what solubility at 24 h did `CO[C@@H]1CN(c2cccc(-c3cccc(C)c3OCc3ccc4c(c3C)CCN(C3COC3)C4)n2)CC[C@@H]1C(=O)O` show?
89 µg/mL

Sample `COC[C@@H]1N(c2cccc(-c3cccc(C)c3OCc3cc(C)c4c(c3)CCN(C3CCOCC3)C4)n2)C[C@@H]2C[C@@]21C(=O)O` — what was its solubility at 24 h?
130 µg/mL

Need solubility at 24 h of `CO[C@@H]1CN(c2nc(-c3cccc(C)c3OCc3ccc4c(c3F)CCN(C3CCOCC3)CC4)cs2)CC[C@@H]1C(=O)O` , thanks.
59.4 µg/mL

Would you mind telling me what solubility at 24 h value was observed for `Cc1cccc(-c2csc(N3C[C@H]4C[C@@]4(C(=O)O)[C@@H]3C)n2)c1OCc1ccc2c(c1C)CCN(C1COC1)C2` ?
8.9 µg/mL

###

tgt: human soluble guanylate cyclase alpha 1 and beta 1 subunits (sGC) (Homo sapiens (Human), UniProt Q02108+Q02153)
Sequence (Q02108 whole entry partner): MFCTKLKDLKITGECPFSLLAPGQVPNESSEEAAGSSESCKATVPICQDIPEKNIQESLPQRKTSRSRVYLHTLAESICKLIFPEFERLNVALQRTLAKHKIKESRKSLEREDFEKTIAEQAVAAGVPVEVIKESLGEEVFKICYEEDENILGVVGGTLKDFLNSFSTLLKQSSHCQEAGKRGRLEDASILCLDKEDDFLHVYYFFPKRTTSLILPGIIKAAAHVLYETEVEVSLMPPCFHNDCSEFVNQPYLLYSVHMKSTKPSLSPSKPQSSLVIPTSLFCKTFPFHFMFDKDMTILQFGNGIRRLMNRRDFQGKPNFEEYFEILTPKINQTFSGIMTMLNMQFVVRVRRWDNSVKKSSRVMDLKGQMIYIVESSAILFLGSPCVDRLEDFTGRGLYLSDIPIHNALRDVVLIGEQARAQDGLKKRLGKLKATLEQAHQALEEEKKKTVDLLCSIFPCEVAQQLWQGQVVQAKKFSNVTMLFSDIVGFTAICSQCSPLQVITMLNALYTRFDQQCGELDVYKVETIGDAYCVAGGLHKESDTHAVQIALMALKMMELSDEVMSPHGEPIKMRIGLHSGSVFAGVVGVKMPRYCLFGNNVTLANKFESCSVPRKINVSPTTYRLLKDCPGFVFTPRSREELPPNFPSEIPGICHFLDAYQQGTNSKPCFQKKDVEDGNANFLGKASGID
Sequence (Q02153 whole entry): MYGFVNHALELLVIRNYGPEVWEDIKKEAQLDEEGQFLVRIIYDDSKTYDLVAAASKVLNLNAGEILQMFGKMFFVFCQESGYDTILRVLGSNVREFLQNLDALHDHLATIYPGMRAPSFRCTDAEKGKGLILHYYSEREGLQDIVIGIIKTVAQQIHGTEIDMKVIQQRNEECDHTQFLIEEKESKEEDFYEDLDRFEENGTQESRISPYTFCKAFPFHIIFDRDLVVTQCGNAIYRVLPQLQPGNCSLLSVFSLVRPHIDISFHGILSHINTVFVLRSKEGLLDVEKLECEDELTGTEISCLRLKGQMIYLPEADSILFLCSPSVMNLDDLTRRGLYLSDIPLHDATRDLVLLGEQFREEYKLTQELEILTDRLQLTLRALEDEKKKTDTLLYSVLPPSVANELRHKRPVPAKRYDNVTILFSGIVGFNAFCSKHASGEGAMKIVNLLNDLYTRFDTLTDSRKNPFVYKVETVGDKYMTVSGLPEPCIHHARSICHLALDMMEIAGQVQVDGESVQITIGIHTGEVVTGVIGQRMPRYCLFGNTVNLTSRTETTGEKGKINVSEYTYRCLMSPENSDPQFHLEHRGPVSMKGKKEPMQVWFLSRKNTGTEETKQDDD
assay.notes: sGC cellular activator assay (cGMP, HTRF), in the presence and absence of 50% human serum
condition.notes: CHO cells stably expressing human sGC alpha 1/beta 1, preincubated with 40 microM ODQ; cGMP by HTRF; Table 2 does not state whether with or without 50% human serum
readout.label: pEC50
Note: pEC50 values are expressed as the negative base-10 logarithm of concentration in M.

>  <compound>
CO[C@@H]1CN(c2cccc(-c3cccc(C)c3OCc3cc(C)c4c(c3)CCN(C3CCOCC3)C4)n2)CC[C@H]1C(=O)O

>  <pEC50>
6.82

$$$$
>  <compound>
CO[C@H]1CN(c2nc(-c3cccc(C)c3OCc3cc(C)c4c(c3F)CCN(C3CCOCC3)C4)cs2)CC[C@H]1C(=O)O

>  <pEC50>
8.40

$$$$
>  <compound>
CO[C@@H]1CN(c2cccc(-c3cccc(C)c3OCc3ccc4c(c3C)CCN(C3CCOCC3)CC4)n2)CC[C@H]1C(=O)O

>  <pEC50>
6.82

$$$$
>  <compound>
Cc1cccc(-c2csc(N3CC[C@@]4(C(=O)O)C[C@H]4C3)n2)c1OCc1ccc2c(c1)CCN(C1COC1)C2

>  <pEC50>
7.55

$$$$

Which value of pEC50 has been reported for Cc1ccc(OCc2ccc3c(c2C)CCN(C2CCOC2)C3)c(-c2csc(N3CC[C@@]4(C(=O)O)C[C@H]4C3)n2)c1 (stereo partly shown) in the records?
8.52

Look at this compound and give its reported pEC50. `COC[C@H]1N(c2cccc(-c3cccc(C(F)(F)F)c3OCc3cc(C)c4c(c3)CCN(C3CCOCC3)C4)n2)C[C@@H]2C[C@@]21C(=O)O`
8.05

// returns reported pEC50 for input `CCO[C@@H]1CN(c2nc(-c3cc(C)ccc3OCc3cc(C)c4c(c3F)CCN(C3CCOCC3)C4)cs2)CC[C@@H]1C(=O)O`
8.22

###

assay.notes: Human liver microsome (HLM) metabolic stability assay
Format: in vitro ADME
condition.notes: human liver microsomes
Form field: Metabolic stability (Qh %), % hepatic blood flow (one value per entry).

Worked set:
>  <compound>
COc1cc(COc2c(C)cccc2-c2csc(N3CC[C@@H](C(=O)O)[C@@H](OC)C3)n2)cc2c1CN([C@H]1CCOC1)CC2

>  <measured.result>
<24%

$$$$
>  <compound>
Cc1cc(COc2c(C)cccc2-c2csc(N3C[C@H]4C[C@@]4(C(=O)O)[C@@H]3C)n2)cc2c1CN(C1CCOCC1)CC2

>  <measured.result>
<24%

$$$$

Looking for the measured Metabolic stability (Qh %), % hepatic blood flow of Cc1cc(COc2c(C)cccc2-c2csc(N3CC[C@@]4(C(=O)O)C[C@H]4C3)n2)cc2c1CN(C1CCCOC1)CC2 (stereo partly shown) , can you help?
42%

Bench note: what Metabolic stability (Qh %), % hepatic blood flow did `CCO[C@@H]1CN(c2cccc(-c3cc(C)ccc3OCc3cc4c(c(OC)c3)CN(C3CCOCC3)CC4)n2)CC[C@@H]1C(=O)O` show?
58%

Given the entry `Cc1cccc(-c2cccc(N3C[C@@H]4C[C@]4(C(=O)O)C3)n2)c1OCc1ccc2c(c1)CCN(C1CCOCC1)C2` , report its measured Metabolic stability (Qh %), % hepatic blood flow.
<24%

# Metabolic stability (Qh %), % hepatic blood flow lookup, item `COc1cc(COc2ccc(C)cc2-c2csc(N3CC[C@@H](C(=O)O)[C@@H](OC)C3)n2)c(F)c2c1CN(C1CCOCC1)CC2`
<24%

For the compound Cc1cc(COc2c(C)cccc2-c2cccc(N3C[C@@H]4C[C@]4(C(=O)O)C3)n2)cc2c1CN(C1CCOC1)CC2 (stereo partly shown) [Compound 26] , what Metabolic stability (Qh %), % hepatic blood flow is on record?
<24%
